Biological target: CB1 receptors (Homo sapiens, UniProt P21554)
Sequence (P21554 whole entry): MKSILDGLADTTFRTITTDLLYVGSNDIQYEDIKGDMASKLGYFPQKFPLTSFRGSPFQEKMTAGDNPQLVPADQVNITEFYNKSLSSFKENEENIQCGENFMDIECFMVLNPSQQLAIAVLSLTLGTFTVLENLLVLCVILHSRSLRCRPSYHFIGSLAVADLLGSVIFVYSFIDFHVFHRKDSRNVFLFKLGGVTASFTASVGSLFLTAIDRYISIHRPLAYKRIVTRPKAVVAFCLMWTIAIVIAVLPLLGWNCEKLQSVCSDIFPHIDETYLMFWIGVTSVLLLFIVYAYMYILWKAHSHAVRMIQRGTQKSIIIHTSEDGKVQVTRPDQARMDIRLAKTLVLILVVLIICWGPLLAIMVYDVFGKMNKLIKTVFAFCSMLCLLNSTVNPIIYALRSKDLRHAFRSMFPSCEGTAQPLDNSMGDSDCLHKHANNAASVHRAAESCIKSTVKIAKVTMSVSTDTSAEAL
Assay: Signal transduction in CHO-CB1-CREluc cells (luciferase; agonism, and antagonism against WIN)
Details: text statement
assay_readout: Effect on CB1 receptor (in words)

Some solved entries appear below for comparison.
C=C(C)[C@@H]1CCC(C)=C[C@H]1c1c(O)cc(CCCCC)c(C(=O)OCC(O)CCC)c1O (some centres unmarked) [Compound V, 2-hydroxypentyl cannabidiolate]; CB1 antagonists
C=C(C)[C@@H]1CCC(C)=CC1c1c(O)cc(CCCCC)c(C(=O)OCCCCCC)c1O (some centres unmarked) [XI, Hexyl cannabidiolate]; CB1 agonists
C=C(C)[C@@H]1CCC(C)=CC1c1c(O)cc(CCCCC)c(C(=O)OCCNS(C)(=O)=O)c1O (some centres unmarked) [XIII, N-Methyl-sulfonyl cannabidiolate]; CB1 antagonists
C=C(C)[C@@H]1CCC(C)=CC1c1c(O)cc(CCCCC)c(C(=O)OC2CCCCC2)c1O (some centres unmarked) [XII, Cyclohexyl cannabidiolate]; CB1 antagonists
C=C(C)[C@@H]1CCC(C)=C[C@H]1c1c(O)cc(CCCCC)c(C(=O)OCC(O)CO)c1O (some centres unmarked) [Compound IV, Glyceryl cannabidiolate]; CB1 agonists

// map C=C(C)[C@@H]1CCC(C)=C[C@H]1c1c(O)cc(CCCCC)c(C(=O)OCCO)c1O [Compound III, 2-hydroxyethyl cannabidiolate] to recorded Effect on CB1 receptor (in words) (system: CB1 receptors (Homo sapiens, UniProt P21554))
CB1 antagonists
